- target.or.test.system: GST-KIX (aa 588-683, from mouse CBP) (mouse, UniProt P45481 588-683)
- Sequence (P45481 588-683): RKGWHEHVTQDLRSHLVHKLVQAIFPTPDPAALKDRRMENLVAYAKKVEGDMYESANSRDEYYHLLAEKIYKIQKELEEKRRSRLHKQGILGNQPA
- experimental.protocol: native gel or EMSA
measured.metric: Kd (nM)
Give just the numeric value; nM need not be written.

Input: I am curious: what Kd value has been reported for Gal4-HBZ-AD wt (Gal4-DBD aa 1-147 fused to the N-terminus of HBZ-AD aa 1-77) (domain or fragment) MAASGLFRCLPVSCPEDLLVEELVDGLLSLEEELKDKEEEEAVLDGLLSLEEESRGRLRRGPPGEKAPPRGETHRDR ?
Output: 3

# credit: paper PMC3139367
